Species on record: Rattus norvegicus
Assay: DrugMatrix - Regimen: Daily Repeat
Type: toxicity, organism-based, Sprague-Dawley
Design: regimen Daily Repeat, gender Male, age 6-8 weeks
Settings: in vivo, po, 10 mg/kg, 120 h, tissue Blood, route oral GAVAGE, dose level Low, time 5 day, […]
Readout Name: MONOCYTE (%)
Your answer is read as %, so omit the unit and give the number.

Could you tell me which MONOCYTE is on file for COc1ccc2cc([C@H](C)C(=O)O)ccc2c1 [NAPROXEN] ?
3.67

Could you tell me which MONOCYTE is on file for CC(C)CC(N(C)C)C1(c2ccc(Cl)cc2)CCC1 (centres undefined) [SIBUTRAMINE] ?
2.67

Could you tell me which MONOCYTE is on file for CCOC(=O)C1=C(C)NC(C)=C(C(=O)OC)C1c1cccc([N+](=O)[O-])c1 (centres undefined) [NITRENDIPINE] ?
1

Could you tell me which MONOCYTE is on file for COCCOC(=O)C1=C(C)NC(C)=C(C(=O)OC(C)C)C1c1cccc([N+](=O)[O-])c1 (centres undefined) [NIMODIPINE] ?
0.67
